Test system: COLO 205
experimentSummary: NCI tumour cell line growth inhibition, 48 h
Calls of active or inactive are those of the source. No stated cut-off is given here; in the data, active = GI50 up to about 1.1 µM and inactive = higher.
outcomeMeasure: GI50

Given CC1=CC(C)(C)NN1C1=NS(=O)(=O)c2ccccc2N1C , state its recorded GI50.
> 100 µM (inactive)

State the recorded GI50 for this entry: COC(=O)C1(NC(=O)C(Cc2ccccc2)N(C(=O)OC(C)(C)C)C(=O)OC(C)(C)C)CCCC1 (centres undefined)
> 100 µM (inactive)

Which value of GI50 has been reported for COc1ccc(-c2cc(O)c3cccnc3n2)cc1 in the records?
19.1 µM (inactive)

Which GI50 reading was recorded for the molecule CCC1=CC2CN3CCc4c([nH]c5ccccc45)C(C(=O)OC)(C2)C13 (centres undefined) ?
39.4 µM (inactive)
